- assay-remarks: Displacement of [3H]prazosin from alpha-1-adrenoceptor in Wistar rat cerebral cortex membrane
- Format: tissue-based
quantity-measured: Ki (nM)

In the examples that follow, each entry is paired with its recorded Ki.
COc1ccccc1N1CCN(C(C)CN2C(=O)NC3c4ccccc4N(C)C3C2=O)CC1 (stereo unspecified)
0.1
COc1ccccc1N1CCN(CCCCCCn2nc(-n3ccc4ccccc43)ccc2=O)CC1
0.2
COc1ccccc1N1CCN(CCN2C(=O)C3Oc4ccccc4C3N(C)C2=O)CC1 (stereo unspecified)
0.1
COc1ccccc1N1CCN(C(C)CN2C(=O)NC3c4ccccc4SC3C2=O)CC1 (stereo unspecified)
0.1
CCOc1ccccc1OCCN1CCN(c2cnn(CCCCCCCN3CCN(c4ccccc4OC(C)C)CC3)c(=O)c2Cl)CC1
0.05
COc1ccccc1N1CCN(C(C)CCN2C(=O)NC3c4ccccc4OC3C2=O)CC1 (stereo unspecified)
0.1
CCOc1ccccc1OCCN1CCN(c2cnn(CCCCCCN3CCN(c4ccccc4OC)CC3)c(=O)c2Cl)CC1
0.05
CCOc1ccccc1OCCN1CCN(c2cnn(CCCCN3CCN(c4ccccc4OCC)CC3)c(=O)c2Cl)CC1
0.05

I: COc1ccccc1N1CCN(CCCCCn2nc(-n3ccnc3)ccc2=O)CC1
II: COc1ccccc1N1CCN(CCN2C(=O)C3Nc4ccccc4C3N=C2C)CC1 (stereo unspecified)
III: COc1ccccc1N1CCN(C(C)CCN2C(=O)C3C(c4ccccc4N3C)N(C)C2=O)CC1 (stereo unspecified)
Challenge: Sort by Ki, descending. Labels, requested order.
Response given: II, I, III

I: CCOc1ccccc1N1CCN(CCn2ncc(N3CCN(CCOc4ccccc4OC)CC3)c(Cl)c2=O)CC1
II: COc1ccccc1N1CCN(CCCN2C(=O)NC3c4ccccc4NC3C2=O)CC1 (stereo unspecified)
Challenge: Form: Entry with minimum Ki (choose one): I / II In your reply, give the label of the chosen option.
Response given: I
(I: 0.05 nM, II: 0.1 nM)

1: COc1ccccc1OCCN1CCN(c2cnn(CCCCCN3CCN(c4ccccc4OC(C)C)CC3)c(=O)c2Cl)CC1
2: COc1ccccc1N1CCN(C(C)CN2C(=O)C3Oc4ccccc4C3N(C)C2=O)CC1 (stereo unspecified)
Challenge: Looking only at measured Ki, which entry is lower, 1 or 2 ? In your reply, give the label of the chosen option.
Response given: 1

a: COc1ccccc1OCCN1CCN(c2cnn(CCCCN3CCN(c4ccccc4OC(C)C)CC3)c(=O)c2Cl)CC1
b: COc1ccccc1N1CCN(CCCN2C(=O)C3Nc4ccccc4C3N(C)C2=O)CC1 (stereo unspecified)
c: COc1ccccc1N1CCN(CCCCCCCn2nc(-n3ccc4ccccc43)ccc2=O)CC1
Challenge: Given 3 compounds, produce a descending ranking by Ki. Would you mind listing the labels in the order requested?
Response given: c, b, a
(c: 0.2 nM, b: 0.1 nM, a: 0.05 nM)

P: CCOc1ccccc1OCCN1CCN(c2cnn(CCN3CCN(c4ccccc4OC(C)C)CC3)c(=O)c2Cl)CC1
Q: COc1ccccc1N1CCN(CCN2C(=O)C3Sc4ccccc4C3N(C)C2=O)CC1 (stereo unspecified)
Challenge: When P and Q are compared, which has the higher number for Ki? Label of pick, please.
Response given: Q

A: COc1ccccc1N1CCN(CCCCCCCn2ncc(N3CCN(CC4COc5ccccc5O4)CC3)c(Cl)c2=O)CC1 (stereo unspecified)
B: COc1cc2nc(N3CCN(C(=O)c4ccco4)CC3)nc(N)c2cc1OC [PRAZOSIN]
C: COc1ccccc1N1CCN(C(C)CN2C(=O)C3C(c4ccccc4N3C)N(C)C2=O)CC1 (stereo unspecified)
Challenge: With regard to Ki, arrange the entries in ascending order, please. Write the labels in rank order as requested.
Response given: A, C, B
(A: 0.05 nM, C: 0.1 nM, B: 0.24 nM)
